- subject-of-test: unrelated Fc-fused recombinant protein
- run-description: ELISA, negative control Fc protein
measured-parameter: ELISA Fc Control (RLU)

{"binder": "ISOP193FR9P1D5 (designed binder, not shown: small tags and cut ends) LPAPKNLVVSRVTEDSARLSWTAPDAAFDSFYIRYIEDVDFGEAIVLTVPGSERSYDLTGLKPGTEYLVTIYGVKGCDWSDPLSAIFTT", "measured-parameter": "ELISA Fc Control (RLU)", "result-value": 51700}
{"binder": "ISOP193HR9P1A7 (designed binder, not shown: small tags and cut ends) LPAPKNLVVSRVTEDSARLSWTAPDAAFDSFDIYYYELRLGGEAIVLTVPGSERSYDLTGLKPGTEYLVTIYGVKVCNASTPLSAIFTT", "measured-parameter": "ELISA Fc Control (RLU)", "result-value": 48900}
{"binder": "ISOP193GR9P1B3 (designed binder, not shown: small tags and cut ends) LPAPKNLVVSRVTEDSARLSWTAPDAAFDSFAIGYVEWTANGEAIVLIVPGSERSYDLTGLKPGTEYVVRIRGGVKGGDSSFPLRADFTT", "measured-parameter": "ELISA Fc Control (RLU)", "result-value": 880}

1 = ISOP193HR9P1E8 (designed binder, not shown: small tags and cut ends) LPAPKNLVVSRVTEDSARLSWTAPDAAFDSFDIYYYELRLGGEAIVLTVPGSERSYDLTGLKPGTEYLVTIYGVKGGDYSPPLSAIFTT
2 = ISOP193HR9P1C8 (designed binder, not shown: small tags and cut ends) LPAPKNLVVSRVTEDSARLSWTAPDAAFDSFEIYYFELRLGGEAIVLTVPGSERSYDLTGLKPGTEYLVTIYGVKGGGYSTPLSAIFTT
Sorting by ELISA Fc Control (RLU) in descending order, would 1 or 2 appear first? Pick one and reply with its label. 1
(1: 3120 RLU, 2: 1360 RLU)

A = ISOP193AR9P1F4 (designed binder, not shown: small tags and cut ends) LPAPKNLVVSRVTEDSARLSWLEQEQFVNHFDSFLIQYQESEKVGEAIVLTVPGSERSYDLTGLKPGTEYTVSIYGVQYVDGFFKSNPLSAIFTT
B = ISOP193ER9P1A4 (designed binder, not shown: small tags and cut ends) LPAPKNLIVSRVTEDSARLSWTAPDAAFDSFEIYYKELRAEGEAIVLTVPGSERSYDLTGLKPGTEYLVTIYGVKGGSVSIPLSAIFTT
When A and B are compared, which has the higher number for ELISA Fc Control (RLU)? Kindly state the label of the option you pick. A
(A: 1520 RLU, B: 960 RLU)

a = ISOP193HR9P1E6 (designed binder, not shown: small tags and cut ends) LPAPKNLVVSRVTEDSARLSWTAPDAAFDSFEIYYAEFGYYGEAIVLTVPGSERSYDLTGLKPGTEYLVTIYGVKGCAASDPLSAIFTT
b = ISOP193ER9P1C9 (designed binder, not shown: small tags and cut ends) LPAPKNLVVSRVTEDSARLSWTAPDAAFDSFDIYYFEHPVGGEAIVLTVPGSERSYDLTGLKPGTEYLVTIYGVKGGELSKPLSAISTT
Which item exceeds the other in ELISA Fc Control (RLU), a or b ? Bench note: the answer is the label of the chosen record. a

Entry source: patent US20220259289A1
